I'd appreciate it if you could supply pIC50 values for the items below.
target: catalytic domain (JH1, amino acids 808-1132) of human JAK2 (Homo sapiens, UniProt O60674); construct: catalytic domain (JH1, amino acids 808-1132) of human JAK2; His (N); purchased BPS Bioscience 40450; host or cells: baculovirus expression system; assay: JAK2 HTRF Enzyme Activity Assay; format: biochemical; conditions: ATP 30 μM, read-out: ENZ 30UMATP
Sequence (O60674 808-1132): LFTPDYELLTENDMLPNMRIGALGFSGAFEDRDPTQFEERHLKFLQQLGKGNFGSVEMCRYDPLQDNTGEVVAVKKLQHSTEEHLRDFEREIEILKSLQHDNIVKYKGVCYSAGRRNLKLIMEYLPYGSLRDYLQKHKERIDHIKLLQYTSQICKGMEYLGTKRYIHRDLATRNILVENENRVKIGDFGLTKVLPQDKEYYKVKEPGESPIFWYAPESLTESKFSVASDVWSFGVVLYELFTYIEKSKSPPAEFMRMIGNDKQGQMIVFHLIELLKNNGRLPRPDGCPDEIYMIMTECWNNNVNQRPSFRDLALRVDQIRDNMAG
pIC50: −log10 of the molar value. Where a name gives a salt, the structure may show the parent alone.

The molecule listed as CN1C(=O)C2(CCN(C3(CC#N)CCC3)CC2)c2c1cnc1[nH]c(-c3cnn(CC(F)F)c3)c(-c3ccc4c(cnn4C)c3)c21 [Example 30, trifluoroacetate salt] has a reported pIC50 of 6.30 to 7.00

The molecule listed as CN1C(=O)C2(CCN(CCC#N)CC2)c2c1cnc1[nH]c(-c3ccc(CN4CCC(S(C)(=O)=O)CC4)cc3)c(-c3ccc4c(cnn4C)c3)c21 [Example 5, trifluoroacetate salt] has a reported pIC50 of 5.90 to 6.30

The molecule listed as CN1C(=O)C2(CCN(CC3(CC#N)CC3)C2)c2c1cnc1[nH]c(-c3cnn(Cc4ccc(C#N)cc4)c3)c(-c3ccc4c(cnn4C)c3)c21 (racemic) [Example 69, trifluoroacetate salt] has a reported pIC50 of 5.90 to 6.30

The molecule listed as CN1C(=O)C2(CCN(C3(CC#N)CCC3)CC2)c2c1cnc1[nH]c(-c3cnn(C4CCOC4)c3)c(-c3ccc4c(cnn4C)c3)c21 (racemic) [Example 45, trifluoroacetate salt] has a reported pIC50 of ≥ 7.00

The molecule listed as CN1C(=O)C2(CCN(C3(CC#N)CC(NS(=O)(=O)c4ccccc4)C3)CC2)c2c1cnc1[nH]c(-c3cnn(C)c3)c(-c3ccccc3)c21 (centres unmarked) has a reported pIC50 of 5.90 to 6.30

----------
target: catalytic domain (JH1, amino acids 826-1132) of human JAK2 (Homo sapiens); construct: catalytic domain (JH1, amino acids 826-1132) of human JAK2; assay: JAK2 LanthaScreen JH1 Binding Assay; conditions: 2 hours at 25° C.
Where a name gives a salt, the structure may show the parent alone.
property-name: IC50

The compound listed as CCS(=O)(=O)N1CC2(C1)CC1(C2)C(=O)N(C)c2cnc3[nH]c(-c4cnn(C5CCCC5)c4)c(-c4ccc5c(cnn5C)c4)c3c21 [Example 90, trifluoroacetate salt] has a reported IC50 of 1250 to 2500 nM

The compound listed as O=C(O)C(F)(F)F.[2H]C([2H])([2H])n1ccc2cc(-c3c(-c4cnn(CCOC)c4)[nH]c4ncc5c(c34)C3(CCN(C4(CC#N)CCC4)CC3)C(=O)N5C)ccc21 has a reported IC50 of 500 to 1250 nM

The compound listed as COC(C)(C)Cn1cc(-c2[nH]c3ncc4c(c3c2-c2ccc3c(cnn3C)c2)C2(CCN(C3(CC#N)CCC3)CC2)C(=O)N4C)cn1 [Example 44, trifluoroacetate salt] has a reported IC50 of 100 to 500 nM

The compound listed as CN1C(=O)[C@]2(CC[C@@H](NS(=O)(=O)C3CC3)C2)c2c1cnc1[nH]c(-c3cnn(C)c3)c(-c3ccc4c(cnn4C)c3)c21 (racemic) [Example 55, trifluoroacetate salt] has a reported IC50 of 1250 to 2500 nM

The compound listed as CN1C(=O)C2(CCN(C3(CC#N)CCC3)CC2)c2c1cnc1[nH]c(-c3cnn(CC(C)(C)O)c3)c(-c3ccc(C(F)(F)F)cc3)c21 [Example 52, trifluoroacetate salt] has a reported IC50 of > 2500 nM
